Test system: SK-OV-3
MEASUREMENT DESCRIPTION: Growth inhibition of human SKOV3 cells after 4 days by WST8 assay
Assay type: functional, cell-based
CONDITION LABEL: SK-OV-3, 96 h
pIC50: −log10 of the molar value.
MEASURED ENDPOINT: pIC50

>  <STRUCTURE SMILES STRING>
CN[C@@H](C)C(=O)N[C@H]1CCCC[C@H]2CC[C@@H](C(=O)NC(c3ccccc3)c3ccccc3)N2C1=O

>  <pIC50>
6.05

$$$$
>  <STRUCTURE SMILES STRING>
CC[C@H](NC)C(=O)N[C@H]1CCCC[C@H]2CC[C@@H](C(=O)NC(c3ccccc3)c3ccccc3)N2C1=O

>  <pIC50>
6.00

$$$$

* * *

pKi: −log10 of the molar value.
Observed pKi, system E3 ubiquitin-protein ligase XIAP (Homo sapiens, UniProt P98170).
MEASURED ENDPOINT: pKi

>  <STRUCTURE SMILES STRING>
CC[C@H](N)C(=O)N[C@H]1CCCC[C@H]2CC[C@@H](C(=O)N[C@H](c3ccccc3)c3ccc4ccccc4c3)N2C1=O

>  <pKi>
6.12

$$$$
>  <STRUCTURE SMILES STRING>
C[C@H](O)C(=O)N[C@H]1CCCC[C@H]2CC[C@@H](C(=O)NC(c3ccccc3)c3ccccc3)N2C1=O

>  <pKi>
4.89

$$$$
>  <STRUCTURE SMILES STRING>
C[C@H](N)C(=O)N[C@H]1CCC[C@H]2CC[C@@H](C(=O)NC(c3ccccc3)c3ccccc3)N2C1=O

>  <pKi>
7.22

$$$$

A: CC[C@H](N)C(=O)N[C@H]1CCCC[C@H]2CC[C@@H](C(=O)NC(c3ccccc3)c3ccccc3)N2C1=O
B: CC[C@H](O)C(=O)N[C@H]1CCC[C@H]2CC[C@@H](C(=O)NC(c3ccccc3)c3ccccc3)N2C1=O
C: C[C@H](N)C(=O)N[C@H]1CCCC[C@H]2CC[C@@H](C(=O)NCc3ccccc3)N2C1=O
Returns the items ordered by pKi, from maximum to minimum. Could you list the labels in the order requested?
A, C, B
(A: 7.41, C: 7.00, B: 4.54)
